target: BDNF/NT-3 growth factors receptor (Homo sapiens) (UniProt Q16620); details: at 1 µM;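 further: values are the mean percent inhibition of TRKB kinase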
Sequence (Q16620 32-822 limits assumed): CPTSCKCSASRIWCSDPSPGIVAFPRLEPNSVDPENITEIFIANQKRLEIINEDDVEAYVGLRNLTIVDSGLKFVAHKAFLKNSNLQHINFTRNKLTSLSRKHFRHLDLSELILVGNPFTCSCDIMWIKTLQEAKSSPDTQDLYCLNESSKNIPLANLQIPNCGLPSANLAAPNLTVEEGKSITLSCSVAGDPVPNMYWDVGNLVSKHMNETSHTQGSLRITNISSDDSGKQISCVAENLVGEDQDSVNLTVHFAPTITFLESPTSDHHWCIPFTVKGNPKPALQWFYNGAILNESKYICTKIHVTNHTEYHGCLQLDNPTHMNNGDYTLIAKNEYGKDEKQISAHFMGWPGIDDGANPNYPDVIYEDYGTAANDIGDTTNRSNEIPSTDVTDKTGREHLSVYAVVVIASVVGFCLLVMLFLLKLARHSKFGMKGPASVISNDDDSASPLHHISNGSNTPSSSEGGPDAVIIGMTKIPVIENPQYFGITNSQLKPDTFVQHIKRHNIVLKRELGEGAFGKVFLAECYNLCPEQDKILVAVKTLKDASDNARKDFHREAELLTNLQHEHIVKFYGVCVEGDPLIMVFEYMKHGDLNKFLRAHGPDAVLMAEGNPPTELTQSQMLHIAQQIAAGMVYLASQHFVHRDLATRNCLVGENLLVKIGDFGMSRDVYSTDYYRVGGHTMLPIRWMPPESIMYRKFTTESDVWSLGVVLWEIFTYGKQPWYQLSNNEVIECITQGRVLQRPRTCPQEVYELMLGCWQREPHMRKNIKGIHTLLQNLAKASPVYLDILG
valueType: inhibition (%)
Reply with just the number (in %).

Exam item: Give its inhibition value. Item: O=C(Nc1n[nH]c2nc(-c3ccc(O)cc3)c(Br)cc12)C1CC1
Marked response: 14.5

Exam item: Give its inhibition value. Item: Fc1ccc(-c2ncn(C3CCNCC3)c2-c2ccnc(Oc3ccc(Oc4ccccc4)cc3)n2)cc1
Marked response: 2.27

Exam item: Give its inhibition value. Item: C[C@@H](Oc1cc(-n2cnc3ccc(OCC4CCN(C)CC4)cc32)sc1C(N)=O)c1ccccc1Cl
Marked response: 10.1

Exam item: Give its inhibition value. Item: O=C(NCC1CC1)c1ccc(-c2cccc(C(=O)NC3CC3)c2)cc1
Marked response: -1.04

Exam item: Give its inhibition value. Item: C[C@@H](Oc1cc(-n2cnc3ccc(OC4CCN(C)CC4)cc32)sc1C(N)=O)c1ccccc1Cl
Marked response: 7.84

Exam item: Give its inhibition value. Item: NC(=O)c1cc(-c2ccc(F)cc2)cc(-c2ccncc2)c1N
Marked response: 3.15

Exam item: Give its inhibition value. Item: Fc1ccc(-c2c(-c3ccncc3)nc3n2CCS3)cc1
Marked response: -0.01

Exam item: Give its inhibition value. Item: CCS(=O)(=O)c1ccc(OC)c(Nc2ncc(-c3ccccc3Cl)o2)c1
Marked response: 8.35

Exam item: Give its inhibition value. Item: NC(=O)Cc1ccccc1Oc1nccc(-c2c(-c3ccc(F)cc3)ncn2C2CCNCC2)n1
Marked response: 0.58

Exam item: Give its inhibition value. Item: CN1CCN(CCCNc2nc3ccc(Oc4ccc(NC(=O)Nc5cc(C(F)(F)F)ccc5F)cc4)cc3[nH]2)CC1
Marked response: 10.6

Exam item: Give its inhibition value. Item: N#Cc1ccc(Oc2nccc(-c3c(-c4ccc(F)cc4)ncn3C3CCNCC3)n2)cc1
Marked response: 4.54

Exam item: Give its inhibition value. Item: O=C1NC(=O)C(c2cccc(Cl)c2)=C1Nc1ccc(Cl)c(C(=O)O)c1
Marked response: 1.89

Exam item: Give its inhibition value. Item: Fc1ccc(-c2ncn(C3CCNCC3)c2-c2ccnc(Oc3ccc(F)c(F)c3)n2)cc1
Marked response: 3.93

Exam item: Give its inhibition value. Item: COc1cccc(/C=N/Nc2ncnc3c2cnn3-c2cccc(OC)c2)c1
Marked response: 5.56

Exam item: Give its inhibition value. Item: Cc1ccc(C(=O)NC2CCC2)cc1-c1ccc(C(=O)NCC2CC2)cc1
Marked response: 1.56

Exam item: Give its inhibition value. Item: CS(=O)(=O)CCNCc1cc(-c2cc3c(Nc4ccc(OCc5cccc(F)c5)c(Cl)c4)ncnc3s2)cs1
Marked response: 5.03

Exam item: Give its inhibition value. Item: COc1cc2ncn(-c3cc(OCc4cccs4)c(C(N)=O)s3)c2cc1OC
Marked response: 16.9

Exam item: Give its inhibition value. Item: CCN(CC)Cc1ccc(Nc2nccc(-c3cnn4ncccc34)n2)cc1
Marked response: 7.47

Exam item: Give its inhibition value. Item: NC(=O)c1cc(-c2ccncc2)cc(-c2ccccc2)c1N
Marked response: 3.86

Exam item: Give its inhibition value. Item: CCS(=O)(=O)c1ccc(OC)c(Nc2ncc(-c3cccc(-c4ccccc4F)c3)o2)c1
Marked response: 39.2

Exam item: Give its inhibition value. Item: O=C1Nc2ccc(I)cc2C1=Cc1cc(Br)c(O)c(Br)c1
Marked response: 5.74
